Target: T1, human IL-25 expressed with a C-terminal myc-myc-hexahistidine tag (human)
T1 construct: also called human IL-25-MMH; hIL-25-MMH
T1 chain: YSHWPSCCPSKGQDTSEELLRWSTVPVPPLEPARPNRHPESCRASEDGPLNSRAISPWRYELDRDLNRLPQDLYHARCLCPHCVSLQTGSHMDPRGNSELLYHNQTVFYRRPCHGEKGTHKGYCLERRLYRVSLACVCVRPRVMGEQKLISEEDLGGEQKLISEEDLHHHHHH
Assay: SPR Biacore, captured mAb, 37°C
100 nM Human IL-25-MMH Bound (RU) values for the binders below.
Param answer (str): number followed by unit.

binder	result
H4H10897P (antibody, human IgG4, V domains shown) VH: QVQLQESGPGLVKPSETLSLTCTVSGGSISDYYWSWIRQPPGKGLEWIGHIYYSGSTNHNPSLKSRVAISVDTSKNQFSLRLYSVTAADTAVYYCARDGYSSSSGFYYFGMDVWGQGTTVTVSS VL: DIQLTQSPSFLSASVGDRVTITCWASQDINSYLAWYQQKPGKAPKLLIFAASTLQGGVPSRFSGSGSGTEFTLTISSLQPEDFATYYCQHLSSFPPTFGQGTRLEIK	48 RU
H4H10905P (antibody, human IgG4, V domains shown) VH: QVQLVQSGAEVKKPGTSVKVSCKASGYTFTNYGISWVRQAPGQGLEWLGWISAYNDNTDYAQKLQARVTMTTDTFTSTAYMDLRSLRSDDTAVYYCARVPITGTTSSFDFWGQGTLVTVSS VL: DIQMTQSPSSLSASVGDRVTISCRASQTIYSYLNWFQQKPGKAPKLLIYDASSLQSGVPSRFSGSGSGTHFTLTISSLQPEDFATYFCQQTYSTPLTFGGGTKVEIK	55 RU
H4H10861P (antibody, human IgG4, V domains shown) VH: QVQLQESGPGLVKPSETLSLTCTVSGASISNYYWSWIRQPPGKGLEWIGYIFYSGNTNYNPSLKSRVTISVDTSKNQFSLKLSSVTAADTAVYYCARVRFSDYELNWFDPWGQGTLVTVSS VL: DIVMTQSPDSLAVFLGERATINCRSSQSVFLGSNNKNYLAWYQQKPGQPPKLLIYWASSRESGVPDRFSGSGSGTDFTLTINSLQAEDVAVYYCQQYFITPLTFGGGTKVEIK	63 RU
H4H10871P (antibody, human IgG4, V domains shown) VH: QVQLVQSGAEVMKPGASVKVSCKSSDFAFTTYGISWVRQAPGQGLEWMGWISAYNGNTNYEQRFQGRITMTTDTSTTTVYMELRSLRSDDTAVYYCARDPDYCSSNTCSDAFDLWGQGTMVTVSS VL: DIQMTQSPSSLSASVRDRVTITCRASQGITNYLAWYQQKPGKVPKVLIYAASTLQSGVPSRFSGSGSGTEFTLAISSLQPEDVATYFCQQYGSAPWTFGQGTKVEIK	49 RU

Record H4H10876P (antibody, human IgG4, V domains shown) VH: QVQLVQSGAEVKKPGASVKVSCKASEYTFSNYGISWVRQAPGQGLEWLGWIGAYSGFTKYAQKVQDRITMTTDASTTTAYMELRNLRSDDTAVYYCARVGTGTDSYFDFWGQGTLVTVSS VL: DIQMTQSPSSLSASVGDRVTITCRASQNINSHLNWYQQKPGKAPKLLIYTASSLQSGVPLRFSGSGSGTDFTLTISSLQPEDFGIYICQQTYITPLTFGGGTKVEIK , field 100 nM Human IL-25-MMH Bound (RU): 60 RU
